Listing of recorded MIC by entry.
# Test system: K. pneumoniae SI-117 producing VIM-1

Compound: CCN1CCN(C(=O)NC(C(=O)N[C@H]2Cc3ccc(SCCN4CCCC4)c(C(=O)O)c3OB2O)c2csc(N)n2)C(=O)C1=O (stereo partly drawn) [Example 64]
System tested: K. pneumoniae SI-117 producing VIM-1
MIC: > 128 µg/mL
//
Compound: CS(=O)(=O)N1CCN(C(=O)N[C@@H](C(=O)N[C@H]2Cc3ccc(F)c(C(=O)O)c3OB2O)c2cc(F)c(O)c(O)c2Cl)C1=O (single isomer, unassigned) [Example 189]
System tested: K. pneumoniae SI-117 producing VIM-1
MIC: 8 to 16 µg/mL
//
Compound: NCCN1CCN(C(=O)N[C@@H](C(=O)N[C@H]2Cc3cccc(C(=O)O)c3OB2O)c2c(Cl)cccc2Cl)C(=O)C1=O (single isomer, unassigned) [Example 224]
System tested: K. pneumoniae SI-117 producing VIM-1
MIC: > 128 µg/mL
//
Compound: CCN1CCN(C(=O)NC(C(=O)N[C@H]2Cc3cccc(C(=O)O)c3OB2O)c2ncc(C(=O)O)cc2F)C(=O)C1=O (stereo partly drawn) [Example 20]
System tested: K. pneumoniae SI-117 producing VIM-1
MIC: > 128 µg/mL
//
Compound: CCN1CCN(C(=O)N[C@H](C(=O)N[C@H]2Cc3cccc(C(=O)O)c3OB2O)c2ccc(C(=O)O)c(F)c2F)C(=O)C1=O (single isomer, unassigned) [Example 139]
System tested: K. pneumoniae SI-117 producing VIM-1
MIC: > 128 µg/mL
//
Compound: CCN1CCN(C(=O)NC(C(=O)N[C@H]2Cc3cccc(C(=O)O)c3OB2O)c2cc(O)ccc2O)C(=O)C1=O (stereo partly drawn) [Example 77]
System tested: K. pneumoniae SI-117 producing VIM-1
MIC: > 128 µg/mL
//
Compound: NS(=O)(=O)Nc1cccc([C@@H](NC(=O)N2CCN(CC(F)(F)F)C(=O)C2=O)C(=O)N[C@H]2Cc3cccc(C(=O)O)c3OB2O)c1 (single isomer, unassigned) [Example 217]
System tested: K. pneumoniae SI-117 producing VIM-1
MIC: > 128 µg/mL
//
Compound: NCCN1CCN(C(=O)N[C@H](C(=O)N[C@H]2Cc3cccc(C(=O)O)c3OB2O)c2cc(Cl)c(O)c(Cl)c2)C(=O)C1=O (single isomer, unassigned) [Example 165]
System tested: K. pneumoniae SI-117 producing VIM-1
MIC: > 128 µg/mL
//
Compound: NS(=O)(=O)NC(C(=O)N[C@H]1Cc2ccc(F)c(C(=O)O)c2OB1O)c1ncc(O)cc1F (stereo partly drawn) [Example 43]
System tested: K. pneumoniae SI-117 producing VIM-1
MIC: > 128 µg/mL
//
Compound: CCN1CCN(C(=O)NC(C(=O)N[C@H]2Cc3cccc(C(=O)O)c3OB2O)c2c(F)cc(NS(N)(=O)=O)cc2F)C(=O)C1=O (stereo partly drawn) [Example 176]
System tested: K. pneumoniae SI-117 producing VIM-1
MIC: > 128 µg/mL
//
Compound: NCCCN1CCN(C(=O)N[C@@H](C(=O)N[C@H]2Cc3cccc(C(=O)O)c3OB2O)c2ncc(O)cc2F)C(=O)C1=O [Example 13]
System tested: K. pneumoniae SI-117 producing VIM-1
MIC: 8 to 16 µg/mL
//
Compound: NCCN1CCN(C(=O)N[C@H](C(=O)N[C@H]2Cc3cccc(C(=O)O)c3OB2O)c2c(F)cc(O)cc2F)C(=O)C1=O (single isomer, unassigned) [Example 110]
System tested: K. pneumoniae SI-117 producing VIM-1
MIC: > 128 µg/mL
